Data origin, for the record: ChEMBL document CHEMBL2074330

tested.on: UniProtKB P46720
Sequence (P46720 whole entry): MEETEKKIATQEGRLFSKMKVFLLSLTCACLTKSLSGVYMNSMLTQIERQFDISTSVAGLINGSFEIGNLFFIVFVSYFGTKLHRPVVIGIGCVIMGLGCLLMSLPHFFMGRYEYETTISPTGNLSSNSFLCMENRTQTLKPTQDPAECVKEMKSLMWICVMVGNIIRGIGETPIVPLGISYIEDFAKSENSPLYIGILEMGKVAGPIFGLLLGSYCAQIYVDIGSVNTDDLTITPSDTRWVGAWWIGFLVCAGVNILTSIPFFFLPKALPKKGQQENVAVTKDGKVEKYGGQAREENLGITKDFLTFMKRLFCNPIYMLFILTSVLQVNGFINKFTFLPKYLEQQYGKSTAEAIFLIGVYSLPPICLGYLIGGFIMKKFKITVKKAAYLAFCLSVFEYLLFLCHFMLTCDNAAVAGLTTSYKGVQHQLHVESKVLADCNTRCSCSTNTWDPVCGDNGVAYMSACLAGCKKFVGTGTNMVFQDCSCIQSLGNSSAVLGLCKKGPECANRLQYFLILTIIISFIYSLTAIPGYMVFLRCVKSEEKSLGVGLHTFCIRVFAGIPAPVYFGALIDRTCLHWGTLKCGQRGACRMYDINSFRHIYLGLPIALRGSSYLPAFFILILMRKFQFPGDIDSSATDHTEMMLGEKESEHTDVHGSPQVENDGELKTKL
assay.summary: TP_TRANSPORTER: inhibition of LTC4 uptake (LTC4: 0.01uM, Ouabain: 500 uM) in Xenopus laevis oocytes
Format: functional, cell-based, Oocyte
Design: scale not given: the % may be the effect or the level left
condition.notes: probe LTC4, read-out: Activity
parameter: activity at 500 µM (%)

structure_smiles=C[C@@H]1O[C@@H](O[C@H]2C[C@@H](O)[C@]3(CO)[C@H]4[C@H](O)C[C@]5(C)[C@@H](C6=CC(=O)OC6)CC[C@]5(O)[C@@H]4CC[C@]3(O)C2)[C@H](O)[C@H](O)[C@H]1O parameter="activity at 500 µM" observed=52

----------
tested.on: UniProt P46720
assay.summary: TP_TRANSPORTER: inhibition of DNP-SG uptake (DNP-SG: 50 uM, p-Chlorophenacyl-SG: 1000 uM) in Xenopus laevis oocytes
Type: functional, cell-based, Oocyte
Design: scale not given: the % may be the effect or the level left
condition.notes: probe DNP-SG, read-out: Activity
parameter: activity at 1000 µM (%)

molecule="NC(CCC(=O)N[C@@H](CSCC(=O)c1ccc(Cl)cc1)C(=O)NCC(=O)O)C(=O)O (stereo partly specified)" tested_on="UniProt P46720" observed=31

----------
tested.on: Solute carrier organic anion transporter family member 1A1 (Rattus norvegicus)
assay.summary: TP_TRANSPORTER: inhibition of LTC4 uptake (LTC4: 0.01uM, DIDS: 250 uM) in Xenopus laevis oocytes
Assay type: functional, cell-based, Oocyte
Parameters: scale not given: the % may be the effect or the level left
condition.notes: probe LTC4, read-out: Activity
parameter: activity at 250 µM

structure_smiles=O=S(=O)(O)c1cc(N=C=S)ccc1/C=C/c1ccc(NC=S)cc1S(=O)(=O)O tested_on="Solute carrier organic anion transporter family member 1A1 (Rattus norvegicus)" observed=25%

----------
tested.on: Solute carrier organic anion transporter family member 1A1 (Rattus norvegicus, UniProt P46720)
assay.summary: TP_TRANSPORTER: inhibition of DNP-SG uptake (DNP-SG: 50 uM, Bilirubin ditaurate: 500 uM) in Xenopus laevis oocytes
Assay type: functional, cell-based, Oocyte
Design: scale not given: the % may be the effect or the level left
condition.notes: probe DNP-SG, read-out: Activity
parameter: activity at 500 µM (%)

compound="C=CC1=C(C)/C(=C/c2[nH]c(Cc3[nH]c(/C=C4\\NC(=O)C(C)=C4C=C)c(C)c3CCC(=O)NCCS(=O)(=O)O)c(CCC(=O)NCCS(=O)(=O)O)c2C)NC1=O [BILIRUBIN DITAURATE]" observed=6
